biological target: Renin (Sus scrofa); test: Compound was evaluated for Non-competitive Renin inhibitory activity against hog kidney renin; Non competitive
Where a SMILES comes first, the peptide text is derived from it.
Metric: Ki (µM)

{"Compound": "COC(=O)[C@H](Cc1ccccc1)NC(=O)[C@@H](NC(=O)[C@H](CC(C)C)NC(=O)[C@@H](N)CC(C)C)C(C)C (H-LLVF-OMe)", "Metric": "Ki", "Value Observed": 500}
